system: Acinetobacter baumannii C319; test: MIC on clinically isolated bacteria; assay type: cell-based; conditions: Acinetobacter baumannii C319; read-out: Minimum Inhibitory Concentration (MIC)
Answer each item with its documented MIC.
Note: unit µg/mL is implicit; provide only the numeric part.

### Prompt Can you look up the measured MIC of C[C@@H](O)[C@H]1C(=O)N2C(C(=O)O)=C(S[C@@H]3CN[C@H](C(=O)N(C)C)C3)[C@H](C)[C@H]12 [Meropenem, reference compound] for me?
### Response 64

### Prompt Requested field: MIC. Item: C[C@H]1[C@H](NC(=O)/C(=N\OC(C)(C)C(=O)O)c2csc(N)n2)C(=O)N1S(=O)(=O)O [Aztreonam, reference compound]
### Response 64

### Prompt Could you share which MIC value was measured for CC1(C)[C@H](NC(=O)/C(=N\O[C@@H](COc2ccc3c(c2)CN(C(=N)NOCCN)C3)C(=O)O)c2csc(N)n2)C(=O)N1OS(=O)(=O)O [Compound 43] ?
### Response 8

### Prompt What MIC value was documented for this compound, CC1(C)[C@H](NC(=O)/C(=N\O[C@@H](COc2ccc3c(c2)CN(C(=N)NCCN)C3)C(=O)O)c2csc(N)n2)C(=O)N1OS(=O)(=O)O [Compound 44] ?
### Response 1

### Prompt Given the compound CC1(C)[C@H](NC(=O)/C(=N\O[C@@H](COc2ccc3c(c2)CN(/C(=N\[C@@H]2CCCNC2)N[C@@H]2CCCNC2)C3)C(=O)O)c2csc(N)n2)C(=O)N1OS(=O)(=O)O [Compound 46] , what is its reported MIC?
### Response 4

====

system: Acinetobacter baumannii C281; assay: MIC on clinically isolated bacteria; format: cell-based; settings: Acinetobacter baumannii C281; read-out: Minimum Inhibitory Concentration (MIC)
Please provide measured MIC for the entries that follow.
Supply the numeric figure in µg/mL, leaving out any unit text.

### Prompt What value of MIC has been recorded for this entry: `CC1(C)[C@H](NC(=O)/C(=N\O[C@@H](COc2ccc3c(c2)CN(/C(=N\[C@@H]2CCCNC2)N[C@@H]2CCCNC2)C3)C(=O)O)c2csc(N)n2)C(=O)N1OS(=O)(=O)O`
### Response 4

### Prompt Recorded MIC for C[C@@H](O)[C@H]1C(=O)N2C(C(=O)O)=C(S[C@@H]3CN[C@H](C(=O)N(C)C)C3)[C@H](C)[C@H]12 [Meropenem, reference compound] , please?
### Response 64

### Prompt Dear colleague, I am looking for the recorded MIC of the following compound: C[C@H]1[C@H](NC(=O)/C(=N\OC(C)(C)C(=O)O)c2csc(N)n2)C(=O)N1S(=O)(=O)O [Aztreonam, reference compound]
### Response 64

### Prompt Give its MIC value. Item: `CC1(C)[C@H](NC(=O)/C(=N\O[C@@H](COc2ccc3c(c2)CN(C(=N)N[C@@H]2CCCNC2)C3)C(=O)O)c2csc(N)n2)C(=O)N1OS(=O)(=O)O`
### Response 2

### Prompt Consider the compound shown here: `CC1(C)[C@H](NC(=O)/C(=N\O[C@@H](COc2ccc3c(c2)CN(C(=N)N(CCN)CCN)C3)C(=O)O)c2csc(N)n2)C(=O)N1OS(=O)(=O)O` What is its recorded MIC?
### Response 16

====

Please respond with reported MIC for every item in the list.
Test system: Acinetobacter baumannii C315
Test: MIC on clinically isolated bacteria
Format: cell-based
Conditions: Acinetobacter baumannii C315; read-out: Minimum Inhibitory Concentration (MIC)
From the text: Twenty-five strains of clinically isolated Acinetobacter baumannii and twenty-seven strains of Pseudomonas aeruginosa were respectively selected and used to determine the minimum inhibitory concentration (MIC) of the compounds by micro-liquid dilution method according to the Institute of Clinical and Laboratory Standard (CLSI) requirements.
Write the number in µg/mL without appending the unit.

### Prompt Name the reported MIC value associated with the compound CC1(C)[C@H](NC(=O)/C(=N\O[C@@H](COc2ccc3c(c2)CN(C(=N)NCCN)C3)C(=O)O)c2csc(N)n2)C(=O)N1OS(=O)(=O)O [Compound 44]
### Response 1

### Prompt Which measured MIC value corresponds to CC1(C)[C@H](NC(=O)/C(=N\O[C@@H](COc2ccc3c(c2)CN(C(=N)NOCCN)C3)C(=O)O)c2csc(N)n2)C(=O)N1OS(=O)(=O)O [Compound 43] ?
### Response 8

### Prompt // returns reported MIC for input C[C@@H](O)[C@H]1C(=O)N2C(C(=O)O)=C(S[C@@H]3CN[C@H](C(=O)N(C)C)C3)[C@H](C)[C@H]12 [Meropenem, reference compound]
### Response 64

### Prompt What does the data say about its MIC? Entry: C[C@H]1[C@H](NC(=O)/C(=N\OC(C)(C)C(=O)O)c2csc(N)n2)C(=O)N1S(=O)(=O)O [Aztreonam, reference compound]
### Response 64

### Prompt Look at this compound and give its reported MIC. CC1(C)[C@H](NC(=O)/C(=N\O[C@@H](COc2ccc3c(c2)CN(C(=N)N[C@@H]2CCCNC2)C3)C(=O)O)c2csc(N)n2)C(=O)N1OS(=O)(=O)O [Compound 41]
### Response 2
